- subject_of_test: Cannabinoid receptor 2 (Homo sapiens)
- Sequence (P34972 whole entry): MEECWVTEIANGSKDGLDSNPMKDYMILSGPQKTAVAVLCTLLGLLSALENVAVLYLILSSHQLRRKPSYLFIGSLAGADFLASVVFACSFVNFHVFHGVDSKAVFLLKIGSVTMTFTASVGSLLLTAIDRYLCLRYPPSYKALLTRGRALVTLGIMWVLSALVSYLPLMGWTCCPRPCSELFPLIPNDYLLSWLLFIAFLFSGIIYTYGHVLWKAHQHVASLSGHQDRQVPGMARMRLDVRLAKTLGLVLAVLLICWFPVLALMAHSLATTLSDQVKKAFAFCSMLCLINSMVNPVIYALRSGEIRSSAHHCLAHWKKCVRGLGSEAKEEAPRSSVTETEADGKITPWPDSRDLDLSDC
pKi: −log10 of the molar value.

{"columns": ["structure_string", "pKi"],
 "data": [
  ["CCCCOc1c(OC)ccc2cc(C(=O)NC3CCCCC3)c(=O)[nH]c12", 8.02]
]}

---

Recorded tissue uptake at 5 min by entry
- procedure_text: in vivo
- stated_conditions: rat

{"columns": ["structure_string", "tissue uptake at 5 min"],
 "data": [
  ["O=C(O)C1CN(Cc2ccc(-c3noc(-c4ccc(OCC[18F])c(C(F)(F)F)c4)n3)cc2)C1", "0.027 %ID/g"],
  ["OCc1cn(Cc2ccc(-c3noc(-c4ccc(OCC[18F])c(C(F)(F)F)c4)n3)cc2)nn1", "0.46 %ID/g"]
]}

---

- procedure_text: in vivo
- stated_conditions: mouse

{"columns": ["structure_string", "result_unit", "tissue uptake at 1 h"],
 "data": [
  ["CS(=O)(=O)c1ccc(-c2cc(C(F)(F)F)nc(NCc3ccc([18F])cc3)n2)cc1", "%ID/g", 1.74]
]}

---

pIC50, Prostaglandin G/H synthase 1 (Homo sapiens, UniProt P23219), per-entry values.
pIC50: −log10 of the molar value.

{"columns": ["compound", "pIC50"],
 "data": [
  ["COC(=O)C([11CH3])c1cccc(C(=O)c2ccccc2)c1 (stereo not given)", 7.33],
  ["Cc1ccc(-n2nc(C(F)(F)F)cc2-c2ccc(S(=O)(=O)Nc3ccc([18F])cc3)cc2)cc1", 4.00],
  ["CS(=O)(=O)c1ccc(-n2c(-c3ccc(O[11CH3])c(F)c3)cnc2Cl)cc1", 5.48],
  ["[11CH3]Oc1ccc(-c2cnc(Cl)n2-c2ccc(S(N)(=O)=O)cc2)cc1F", 5.00],
  ["[11CH3]Oc1ccc(-c2c(-c3ccc(S(N)(=O)=O)cc3)[nH]c3ccccc23)cc1", 5.00]
]}
